pIC50 values for PDE1A (Homo sapiens) compiled from several publications are listed below.
Schema: pIC50 number; meaning minus log10 of the concentration expressed in molar units.

molecule="COc1ccc2c(N[C@@H]3COC[C@H]3O)ncnc2c1OC (relative stereo)" target="PDE1A (Homo sapiens)" parameter_measured=pIC50 experimental_result=5.64

Write down the reported pIC50 of CC(C)n1ncc2nc(-c3cccc(OC(F)F)c3)cc(N[C@@H]3CCOC3)c21 , test system: PDE1A (Homo sapiens).
5.96

I'm curious: which pIC50 was measured for Cn1c(Cc2ccc(-c3ccccc3)cc2)cn2c(C3CCOCC3)ncc2c1=O tested on PDE1A (Homo sapiens)?
7.55

Which measured pIC50 belongs to Cc1ccccc1Cn1c(C)cn2c(C3CCOCC3)ncc2c1=O , tested on PDE1A (Homo sapiens)?
6.62

Form field - read-out: pIC50; system: PDE1A (Homo sapiens); submitted item: CCOc1ncccc1-c1cc(N)c2c(n1)c(C)nn2C(C)C
7.21

* * *

For reference, the following IC50 results for PDE1A (Homo sapiens, UniProt P54750) were taken from various sources.

compound=Cc1cn2c(C3CCOCC3)ncc2c(=O)n1CC1CCCCC1 target="PDE1A (Homo sapiens, UniProt P54750)" parameter_measured=IC50 experimental_result="11 nM"

Entry CC(C)N1CCN(c2ccc(NC(=O)N3CC(c4nc5c(cnn5C5CCCCC5)c(=O)[nH]4)C3)cc2)CC1 has what IC50?
1 to 100 nM

Given Cn1nc(C2CCCC2)c2nc(N3CCCCC3)[nH]c(=O)c21 , state its recorded IC50.
> 500 nM

Which IC50 reading was recorded for the compound CCOc1ncccc1-c1cc(N2CCCC2)c2c(cnn2C)n1 ?
1090 nM

Fill in the blank: the reported IC50 of O=c1[nH]c(C2CN(c3ncc(-c4ccccc4)o3)C2)nc2c1cnn2C1CCCCC1 is ____.
101 to 500 nM

Return reported IC50; argument: COc1ccccc1C(=O)N1CCCC(c2nc3c(cnn3C3CCCCC3)c(=O)[nH]2)C1 (centres unmarked)
101 to 500 nM

So what's the measured IC50 for this one? Cc1nn(C2CCCCC2)c2nc(C3CCCN(C(=O)c4ccsc4)C3)[nH]c(=O)c12 (centres unmarked)
1000 to 1500 nM

What value of measured IC50 is listed for CCOc1ncncc1-c1cc(NC2CCOC2)c2c(cnn2C(C)C)n1 (stereo in doubt) ?
3000 nM

* * *

Literature-derived pIC50 for PDE1A (Homo sapiens, UniProt P54750) follows.
Units for pIC50: none; it is -log10 of a concentration expressed in mol/L.

In the examples that follow, each entry is paired with its recorded pIC50.
smiles_repr=O=c1c2nnc(C3(C4CC4)CC3)n2c2nc(O)ccc2n1CC1CC1 parameter_measured=pIC50 experimental_result=8.56
smiles_repr=COc1ccc(Cn2c(C)cn3c(C4CCOCC4)ncc3c2=O)cn1 parameter_measured=pIC50 experimental_result=7.35
smiles_repr=COc1ccc(Cn2c(CC3CCCC3)cn3c(C4CCOCC4)ncc3c2=O)cc1 parameter_measured=pIC50 experimental_result=7.15

We now examine a further molecule.
// map CCOc1ncccc1-c1ccc2c(cnn2C(C)C)n1 to recorded pIC50 (system: PDE1A (Homo sapiens, UniProt P54750))
6.08

* * *

Collected literature values of IC50 measured for PDE1A (Homo sapiens, UniProt P54750).

molecule="CC1OCCC1c1ncc2c(=O)n(C)c(Cc3ccc(-c4cccc(F)n4)cc3)cn12 (single isomer, unassigned; isomer 1)" parameter_measured=IC50 experimental_result="0.061 µM"

Short answer please: IC50, PDE1A (Homo sapiens, UniProt P54750), entry Cc1nn(C2CCCCC2)c2nc(C3CN(C(=O)OCc4ccccc4)C3)[nH]c(=O)c12
0.101 to 0.5 µM

Observed IC50 on PDE1A (Homo sapiens, UniProt P54750) for COc1ccc(Cn2c(C)cn3c(N4CCOCC4)ncc3c2=O)cc1 , please.
0.096 µM

Checklist item: IC50 tested on PDE1A (Homo sapiens, UniProt P54750), entry O=C(N1CCCCC1)N1CC(c2nc3c(cnn3C3CCCCC3)c(=O)[nH]2)C1 , value?
0.501 to 1 µM

So what IC50 did O=c1[nH]c(C2CN(c3nnc(-c4ccccc4)o3)C2)nc2c1cnn2C1CCCCC1 get with PDE1A (Homo sapiens, UniProt P54750)?
0.101 to 0.5 µM

IC50 of O=c1[nH]c(C2CN(c3ccc(S(=O)(=O)N4CCOCC4)cc3)C2)nc2c1cnn2C1CCCCC1 on PDE1A (Homo sapiens, UniProt P54750)?
0.001 to 0.1 µM

* * *

Values of IC50 for PDE1A (Homo sapiens, UniProt P54750), collected from a number of published sources:

Guide cases for IC50, answers given:
compound="CC(C)(C)OC(=O)N1CCCC(NC(=O)N2CC(c3nc4c(cnn4C4CCCCC4)c(=O)[nH]3)C2)C1 (stereo not drawn)" target="PDE1A (Homo sapiens, UniProt P54750)" experimental_result="1 to 100 nM"
compound=CC[C@@]12C=C(c3cncc(C)n3)n3c4c(c5ccccc53)CCN(CCC1)[C@H]42 target="PDE1A (Homo sapiens, UniProt P54750)" experimental_result="1000 to 20000 nM"

Consider the additional compound presented here.
// lookup IC50 | system=PDE1A (Homo sapiens, UniProt P54750) | key= CCC(CC)CN(Cc1cccc(N2CCOCC2)c1)c1nc2c(C(C)(C)C)nn(C)c2c(=O)[nH]1
< 100 nM

* * *

IC50 values for PDE1A (Homo sapiens, UniProt P54750) compiled from several publications are listed below.

The cases that follow already have their IC50 on record.
compound="Cc1nn(-c2ccccc2)c2nc(C3CCCN(C(=O)c4ccc(C#N)cc4)C3)[nH]c(=O)c12 (stereo not drawn)" experimental_result="1000 to 1500 nM"
compound=CC[C@@]12C=C(c3nc(C)c(C)o3)n3c4c(c5c(S(=O)(=O)NCCCOC)cccc53)CCN(CCC1)[C@H]42 experimental_result="20000 to 100000 nM"
compound=CCCc1nn(C)c2c(=O)[nH]c(N(C)Cc3cc(-c4ccccc4)on3)nc12 experimental_result="< 100 nM"
compound="Cc1nn(C2CCCCC2)c2nc(C3CCCN(C(=O)c4ccc(C(F)(F)F)cc4)C3)[nH]c(=O)c12 (stereo not drawn)" experimental_result="501 to 1000 nM"

# returns recorded IC50 (system: PDE1A (Homo sapiens, UniProt P54750)) for COc1ccc(OC)c(S(=O)(=O)N2CCCC(c3nc4c(cnn4C4CCCCC4)c(=O)[nH]3)C2)c1 (stereo not drawn)
101 to 500 nM

Checklist item: IC50 tested on PDE1A (Homo sapiens, UniProt P54750), entry CCCc1nn(C)c2c(=O)[nH]c(N(C)Cc3ccnc(N4CCCC4)c3)nc12 , value?
> 500 nM

Fill in the recorded IC50 for this compound, with PDE1A (Homo sapiens, UniProt P54750) as test system: O=c1c2cnc(C3CCOCC3)n2ncn1CC1CCCCCC1
33 nM

# value lookup — system PDE1A (Homo sapiens, UniProt P54750), readout IC50, item Cn1c(N2CC(c3nc4c(cnn4C4CCCCC4)c(=O)[nH]3)C2)nc2ccccc21
501 to 1000 nM

Param readout = IC50; param system = PDE1A (Homo sapiens, UniProt P54750); param query = CCCc1nn(C)c2c(=O)[nH]c(N(CCC(C)(C)C)Cc3cccc(N4CCOCC4)c3)nc12 ; response: value
< 100 nM

Requested read-out IC50, target or system PDE1A (Homo sapiens, UniProt P54750), entry Cc1nn(C2CCCCC2)c2nc(C3CN(C(=O)OC(C)(C)C)C3)[nH]c(=O)c12
101 to 500 nM

Look up IC50 with PDE1A (Homo sapiens, UniProt P54750) for this compound: CCCc1nn(C)c2c(=O)[nH]c(N(C)CC(C)CCC)nc12 (stereo not drawn)
101 to 500 nM

Request body: readout IC50, system PDE1A (Homo sapiens, UniProt P54750), query O=C(Nc1ccc(F)c(F)c1)N1CC(c2nc3c(cnn3C3CCCCC3)c(=O)[nH]2)C1 . Return the value.
1 to 100 nM

Query for PDE1A (Homo sapiens, UniProt P54750): what IC50 does the record show for Cc1nn(-c2ccc(F)cc2)c2nc(C3CN(C(=O)NC4CCCCC4)C3)[nH]c(=O)c12 ?
101 to 500 nM

Find the measured IC50: item O=c1[nH]c(C2CN(/C(=C\[N+](=O)[O-])NCC3CCCCC3)C2)nc2c1cnn2C1CCCCC1 , target or system PDE1A (Homo sapiens, UniProt P54750).
101 to 500 nM

For PDE1A (Homo sapiens, UniProt P54750), provide IC50 of CN(Cc1ccc(Cl)c(Cl)c1)c1nc2c(C3CCCC3)nn(C)c2c(=O)[nH]1 please.
< 100 nM

Test system PDE1A (Homo sapiens, UniProt P54750); read-out IC50; what value for COc1ccc(C(=O)N2CCCC(c3nc4c(c(C)nn4C4CCCCC4)c(=O)[nH]3)C2)cc1 (stereo not drawn) ?
101 to 500 nM

Request - read-out IC50 | tested on PDE1A (Homo sapiens, UniProt P54750) | compound CCCc1nn(C)c2c(=O)[nH]c(N(CCC(C)C)Cc3ccc(Cl)c(Cl)c3)nc12
< 100 nM

Give PDE1A (Homo sapiens, UniProt P54750) IC50 for CC(C)(C)n1ncc2c(=O)[nH]c(C3CN(C(=O)Oc4ccc5c(c4)OCO5)C3)nc21
1 to 100 nM
